Test system: JURKAT
Test: 7-day Cell Titer Glo viability assay
Assay type: cell-based, Human
Settings: JURKAT cells, 7-day viability assay
parameter_measured: IC50

INSERT INTO measurements (compound, assay_target, result) VALUES
  ('O=S1(=O)N[C@@]2(CN1CC(F)(F)F)[C@@H]1CC[C@H]2Cc2ccc(/C=C/CN3CCC(C(F)(F)F)CC3)cc2C1 [MRK-003]', 'JURKAT', '> 10 µM');

====

Tested on: DND41
Test: 7-day Cell Titer Glo viability assay
Format: cell-based, Human
Details: DND41 cells, 7-day viability assay
parameter_measured: IC50 (nM)

INSERT INTO results (compound, unit_string, readout_number) VALUES
  ('O=S1(=O)N[C@@]2(CN1CC(F)(F)F)[C@@H]1CC[C@H]2Cc2ccc(/C=C/CN3CCC(C(F)(F)F)CC3)cc2C1 [MRK-003]', 'nM', 250);

====

Tested on: SKW-3
Assay: 7-day Cell Titer Glo viability assay
Assay type: cell-based, Human
Details: SKW-3 cells, 7-day viability assay
parameter_measured: IC50

INSERT INTO measurements (query_smiles, result) VALUES
  ('O=S1(=O)N[C@@]2(CN1CC(F)(F)F)[C@@H]1CC[C@H]2Cc2ccc(/C=C/CN3CCC(C(F)(F)F)CC3)cc2C1', '> 10 µM');

Origin of the recorded values: patent US20130178391A1
